# Procedure Text: NCI Yeast Anticancer Drug Screen. Data for the cln2 rad14 strain (AID 165);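 further: 0% = growth equal to vehicle treated cultures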
# Assay Setup: S. cerevisiae cln2 rad14 strain, at 50.0 µM, stronger effect = higher value
Compounds without any hit were thinned out: in the full panel of roughly 79,000, 15% have a hit. Activity calls are given as the source filed them. No stated cut-off is given here; in the data, active means growth inhibition above about 70%; inactive means the rest.
Listed compounds paired with reported growth inhibition

The following compounds have reported results that may help.
compound="Cc1cccc2c1NC(O)c1cccn1C2=O (stereo not drawn)" recorded_result="-22.4% (inactive)"
compound="CCOC(=O)c1cc(O)cc(=O)n1C1OC(COC(=O)c2ccccc2)C(OC(=O)c2ccccc2)C1OC(=O)c1ccccc1 (stereo not drawn)" recorded_result="3.35% (inactive)"
compound="CC(Sc1nc2ccc(Cl)cc2[nH]1)C(=O)O (stereo not drawn)" recorded_result="-16.9% (inactive)"

Provide one value: measured growth inhibition of CC1OC(n2cc(F)c(=O)[nH]c2=O)CCC1O (stereo not drawn)
-10.1% (inactive)

Give the reported growth inhibition for this compound. "CCCCCCCCCC1=C(C#N)C(=O)OCCN1C"
-22.1% (inactive)

Check the records and state growth inhibition for "CN(C)c1ccc(/C=C(\C#N)c2ccc(F)cc2F)cc1"
-9.05% (inactive)

Read the entry "CC(C)=C=CC(C)(C)NS(=O)(=O)NC(C)(C)C=C=C(C)C" and write its reported growth inhibition.
3.35% (inactive)

Give a short answer stating reported growth inhibition for "c1ccc(CSC2(SCc3ccccc3)CCCC2)cc1" .
11.8% (inactive)

Read off the recorded growth inhibition for "C=Cn1c([N+](=O)[O-])cnc1/C=C/c1ccc(C(=O)OCCN2CCOCC2)cc1"
34.9% (inactive)

Return growth inhibition for the following compound: CCNC(=O)C(C(=O)OCCN(CC)CC)c1ccccc1 (stereo not drawn)
-1.05% (inactive)

Please report the measured growth inhibition for "NNC(=O)C(CC(C(=O)NN)C(=O)NN)C(=O)NN"
-22.5% (inactive)

Hello, please tell me recorded growth inhibition for this one: "[N-]=[N+]=Nc1nn2cnnc2c2[nH]c3ccccc3c12"
-1.4% (inactive)

Answer with the recorded growth inhibition for the compound listed here: "CC(C)CC1OCC(C)(C)CO1"
-7.05% (inactive)

For the compound "O=C(c1ccc(F)cc1)c1ccc2ccccc2c1" , give its reported growth inhibition.
10.7% (inactive)

Please give the documented growth inhibition of "Cc1ccc(NC(=S)N2CCCCC2)cc1C"
-19.2% (inactive)

Give the reported value of growth inhibition for this record: "CC1=C(C#N)C(C)(C)c2ccccc21"
-25.9% (inactive)

Recall and state the measured growth inhibition for "Cn1cnc([N+](=O)[O-])c1Cl" .
-7.55% (inactive)

Note down growth inhibition recorded for "O=C1c2ccccc2-c2nc(/C=C/c3ccccc3)cc3c2c1nc1ccccc13"
7% (inactive)
